tested on: Salmonella enterica typhimurium; assay: growth AUC normalised to DMSO control (fraction of control); higher = less growth inhibition, active = hit call of the paper; conditions: 20 µM
Counter-ions that a name gives are not always drawn.
METRIC_NAME: growth AUC normalised to DMSO control
One number for each entry.

// known answers, use as guide
COMPOUND	MEASURED_ON	METRIC_NAME	EXPERIMENTAL_VALUE
C[C@H](CS)C(=O)N1CCC[C@H]1C(=O)O	Salmonella enterica typhimurium	growth AUC normalised to DMSO control	1.01
CN(C)CCC=C1c2ccccc2CCc2ccccc21 [Amitryptiline hydrochloride]	Salmonella enterica typhimurium	growth AUC normalised to DMSO control	0.997
COCCCOc1ccnc(C[S+]([O-])c2nc3ccccc3[nH]2)c1C (stereo not drawn) [Rabeprazole sodium salt]	Salmonella enterica typhimurium	growth AUC normalised to DMSO control	1.01
C#C[C@]1(O)CC[C@H]2[C@@H]3CCC4=C(CCC(=O)C4)[C@H]3CC[C@@]21C	Salmonella enterica typhimurium	growth AUC normalised to DMSO control	1

Items follow; give growth AUC normalised to DMSO control for each.
1. CC(C(=O)O)c1ccc(N2Cc3ccccc3C2=O)cc1 (stereo not drawn)
2. Cc1ccc(NC(=O)c2ccc(CN3CCN(C)CC3)cc2)cc1Nc1nccc(-c2cccnc2)n1
3. Cc1ccc2c(c1)c1c3n2CCNC3CCC1 (stereo not drawn) [Pirlindole mesylate]
4. C[C@]12C[C@H](O)[C@H]3[C@@H](CCC4=CC(=O)CC[C@@]43C)[C@@H]1CC[C@@H]2C(=O)CO

0.992
1.03
0.988
1

Data provenance is the supplement of paper PMC12350171.
